test: gradient 5% acetonitrile 3 min, to 50% in 2 min, to 85% in 15 min, held 3 min, 100 µL/min; details: column: Zorbax Extend-C18 2.1 x 50 mm; eluents: water / acetonitrile, 0.1% formic acid
READOUT: RP-LC retention time (s)

COMPOUND	READOUT	MEASURE_UNIT	REPORTED
CCn1cc(CCNC(=O)Nc2c(C)cccc2C)c2cccnc21	RP-LC retention time	s	705

1. COc1ccc2nc(NC(=O)Nc3ccccc3)sc2c1
2. CCN1C(=O)c2ccccc2Oc2ccc(C(=O)NCCC3=CCCCC3)cc21
Param pair: 1 , 2 . Output: the one whose RP-LC retention time is numerically greater. Let me know the label of the one you choose.
1
(1: 966 s, 2: 639 s)

###

experiment: gradient 5% acetonitrile 3 min, to 50% in 2 min, to 85% in 15 min, held 3 min, 100 µL/min; settings: column: Zorbax Extend-C18 2.1 x 50 mm; eluents: water / acetonitrile, 0.1% formic acid
READOUT: RP-LC retention time (s)

A. COc1ccc(Cl)cc1NC(=O)C1(C)Oc2cccnc2NC1=O (stereo not given)
B. Cc1ccc(-n2ncc3c(=O)n(Cc4nc(-c5ccc(Cl)cc5)no4)cnc32)cc1
Consider entries A and B . Which has the numerically lower RP-LC retention time? Respond with the label that goes with your answer.
A
(A: 798 s, B: 1160 s)

P. Cc1ccc(-c2noc(-c3ccc(=O)n(CC(=O)OC(C)C)n3)n2)cc1
Q. Cc1ccc(-c2nnc(-c3cccc(S(=O)(=O)NCc4cccnc4)c3)o2)cc1
// compare: P vs Q , metric RP-LC retention time, want the smaller Write the label of whichever entry you select.
Q

###

test: gradient 5% acetonitrile 3 min, to 50% in 2 min, to 85% in 15 min, held 3 min, 100 µL/min; conditions: column: Zorbax Extend-C18 2.1 x 50 mm; eluents: water / acetonitrile, 0.1% formic acid
READOUT: RP-LC retention time (s)

COMPOUND	MEASURE_UNIT	RP-LC retention time
Cc1ccc(NC(=O)C2(C)Oc3cccnc3N(C(C)C)C2=O)c(C)c1 (centres undefined)	s	1040
Cc1ccc(CNC(=O)C2(C)CN(S(C)(=O)=O)CC(=O)N2Cc2ccc(Cl)cc2)cc1 (centres undefined)	s	906
O=C1[C@@H]2Cc3c([nH]c4ccccc34)C(CCc3ccccc3)N2C(=O)CN1Cc1ccco1 (some centres undefined)	s	1000
CCc1ccc(C2=C(C)C(N3CCCN(C(=O)c4ccco4)CC3)=NS2(=O)=O)cc1	s	838
CC1=CC(=O)CC(C)(C)C1(O)/C=C/C(C)=C\C(=O)O (centres undefined)	s	683

A. COc1ccc(CCS(=O)(=O)NCC2(CO)CC2)cc1
B. COc1ccc(Cl)cc1NC(=O)N(C)CCc1noc(COc2ccccc2)n1
Could you tell me which of these two has the smaller RP-LC retention time figure? First: A Second: B Identify your pick by its label.
A

###

test: gradient 5% acetonitrile 3 min, to 50% in 2 min, to 85% in 15 min, held 3 min, 100 µL/min; conditions: column: Zorbax Extend-C18 2.1 x 50 mm; eluents: water / acetonitrile, 0.1% formic acid
READOUT: RP-LC retention time (s)

Some compounds with known RP-LC retention time results, for comparison:
COMPOUND	MEASURE_UNIT	REPORTED
CCc1ccc(NC(=O)C2CCc3nc(N4CCOCC4)ncc3C2)cc1 (centres undefined)	s	835
COc1ccc(-c2noc(-c3cccnc3N3CCN(c4ccccc4OC)CC3)n2)cc1	s	1150
O=C(CN1C(=O)C(C(=O)N2CCCC2)Sc2ccccc21)NCc1ccccc1Cl (centres undefined)	s	928
CN1C(=O)C(c2c[nH]c3ccccc23)=C(c2c[nH]c3ccccc23)C1=O	s	868
COc1ccc(S(=O)(=O)N2[C@H]3CC[C@@H]2c2cnc(C)nc2C3)cc1	s	693
Cn1cccc1-c1cc2n(n1)CCC(=O)N2CCCC(=O)NCc1cccc(Cl)c1	s	804
CCOC(=O)C1CCN(c2ncc(C(=O)Nc3ccc(OC)cc3)c(N)n2)CC1	s	698

a. CCNC(=O)Nc1ccc(OCC(=O)N2CCN(c3ncccn3)CC2)nc1
b. O=C(NCc1csc(-c2ccccc2)n1)C1CCN(S(=O)(=O)c2cccs2)CC1
// which entry reports the smaller RP-LC retention time, a or b ? Output the label that corresponds to your choice.
a
(a: 604 s, b: 872 s)
